Reference source for all entries: PubChem BioAssay AID2275

Assay: cytotoxicity in HRASV12-transformed BJ fibroblasts – cell-based, luminescence, CellTiterGlo ATP, primary screen (AID 2275);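 note: higher score means fewer live cells and less ATP luminescence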
Settings: BJeLR fibroblasts viability, 48 h, concentration not given here; HRASV12, hTERT and SV40 LT/ST transformed unless noted
The campaign covered roughly 30,000 compounds. About 190 (0.63%) were called active. Cut-off read from the data, not from the text of the source: active = viability loss activity score above about 50%; inconclusive = no clear call, values can overlap the other calls; inactive = below about 35%. Only a selection was taken, and actives are over-represented in it overall.
Labels: 1.0 = active, 0.0 = inactive

Compound	Class assignment
CC(C)[C@@]1(NC(=O)[C@@H]2CC3c4cccc5[nH]cc(c45)C[C@H]3N(C)C2)O[C@@]2(O)[C@@H]3CCCN3C(=O)[C@H](Cc3ccccc3)N2C1=O (stereo partly specified)	0.0
CC(=O)Nc1nc(C)c(Oc2ccccc2)c(OC(=O)N(C)C)n1	0.0
Fc1ccc(CNC2=NCCS2)cc1	0.0
CN1CC=C(c2noc(CCC(=O)Nc3ccc(F)cc3F)n2)CC1	0.0
CC(C)(c1ccccc1)c1ccc(O)cc1	0.0
C[C@H]1O[C@@H](O[C@H]2CC[C@]3(CO)C4CC[C@]5(C)[C@@H](C6=CC(=O)OC6)CC[C@]5(O)[C@@H]4CC[C@H]3C2)[C@H](O)[C@H](O)[C@@H]1O[C@@H]1O[C@H](CO)[C@@H](O)[C@H](O)[C@H]1O (stereo partly specified)	1.0
CC1N=C(c2ccccc2)c2ccccc2N(CCCOc2ccc(F)cc2)C1=O (stereo unspecified)	0.0
C[C@H]1CCC/C=C/C2C[C@H](O)C[C@H]2[C@H](O)/C=C\C(=O)O1 (stereo partly specified)	1.0
Cc1ccc(CSc2nnc(OC(=O)N(C)C)n2-c2cccc(Cl)c2)cc1	0.0
CNC(=O)N(C)c1nnc(C(C)(C)C)s1	0.0
c1ccc2c(c1)[I+]c1ccccc1-2	1.0
